Entries and their measured koff follow.
Target: T1, hu-IL-36β (human IL-36β, N-terminally truncated active form R5-E157) (human)
T1 construct: Purification tag cleaved off; Biotinylated where captured; also called hu-IL-36b
T1 chain: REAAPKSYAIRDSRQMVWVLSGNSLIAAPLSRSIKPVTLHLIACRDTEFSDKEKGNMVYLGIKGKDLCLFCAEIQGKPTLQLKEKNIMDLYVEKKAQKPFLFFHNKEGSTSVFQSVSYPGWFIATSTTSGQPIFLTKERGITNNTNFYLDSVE
Assay: SPR (Biacore 8K), biotinylated hu-IL-36β captured on CAP chip, Fab injected, 37°C
valueType: koff

binder="mAb6_2.10 Fab (Fab, V domains shown, Recombinant Fab with 8xHis tag (Expi293F)) VH: ELQLQESGPGLVKPSETLSLTCTVSGGSITSSNYYWGWIRQPPGKGLEWIGSIDYTGSTYYQPSLKSRVTISVDTSKNQFSLKLSSVTAADTAVYYCARGNYYETYLGFDVWGQGTLVTVSS VL: ESVLTQPPSVSGAPGQRVTISCTGSSSNIGAHYDVHWYQQLPGTAPKLLIYGNDNRPSGVPDRFSGSKSGTSASLAITGLQAEDEADYYCQSYDYSLSGYVFGGGTKLTVL" measured="0.00103 s⁻¹"
binder="mAb6_2.9 Fab (Fab, V domains shown, Recombinant Fab with 8xHis tag (Expi293F)) VH: ELQLQESGPGLVKPSETLSLTCTVSGGSITSSNYYWGWIRQPPGKGLEWIGSIDYTGSTYYNPSLKSRVTISVDTSKNQFSLKLSSVTAADTAVYYCATGKYYETYLGFDVWGQGTLVTVSS VL: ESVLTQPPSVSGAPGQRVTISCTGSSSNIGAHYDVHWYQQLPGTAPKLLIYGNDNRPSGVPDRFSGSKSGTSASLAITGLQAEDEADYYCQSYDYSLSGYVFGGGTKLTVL" measured="0.000411 s⁻¹"
binder="mAb6_2.8 Fab (Fab, V domains shown, Recombinant Fab with 8xHis tag (Expi293F)) VH: ELQLQESGPGLVKPSETLSLTCTVSGGSITASNYYWGWIRQPPGKGLEWIGSIDYTGSTYYNPSLKSRVTISVDTSKNQFSLKLSSVTAADTAVYYCASGKYYETYLGFDVWGQGTLVTVSS VL: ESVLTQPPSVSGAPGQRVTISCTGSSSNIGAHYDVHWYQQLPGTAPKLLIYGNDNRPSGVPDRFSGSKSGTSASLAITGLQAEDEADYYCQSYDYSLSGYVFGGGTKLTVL" measured="0.000343 s⁻¹"
